From: PubChem BioAssay (NCATS)

TARGET_OR_SYSTEM: Cytochrome P450 1A2 (Homo sapiens) (UniProt P05177)
Sequence (P05177 whole entry, looked up): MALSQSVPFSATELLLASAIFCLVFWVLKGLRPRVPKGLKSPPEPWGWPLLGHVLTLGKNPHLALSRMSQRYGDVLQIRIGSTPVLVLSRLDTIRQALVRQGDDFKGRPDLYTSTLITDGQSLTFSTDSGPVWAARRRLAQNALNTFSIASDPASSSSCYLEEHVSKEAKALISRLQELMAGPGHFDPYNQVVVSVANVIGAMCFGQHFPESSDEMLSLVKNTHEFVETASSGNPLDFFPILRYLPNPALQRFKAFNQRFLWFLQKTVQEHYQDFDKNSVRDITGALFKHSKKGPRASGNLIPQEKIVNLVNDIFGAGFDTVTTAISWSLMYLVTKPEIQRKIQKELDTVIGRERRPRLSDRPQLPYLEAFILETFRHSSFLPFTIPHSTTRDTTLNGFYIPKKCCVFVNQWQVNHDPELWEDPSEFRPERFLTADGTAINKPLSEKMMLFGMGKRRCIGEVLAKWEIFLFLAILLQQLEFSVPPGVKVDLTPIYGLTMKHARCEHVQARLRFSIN
PROTOCOL: p450-cyp1a2 (AID 410)
CONDITION_NOTES: recombinant CYP1A2, luciferin-ME demethylation, luminescence; series mostly up to 57 µM
Results filed as inconclusive are left out. Activity calls are given as the source filed them. The call rests on the fitted dose curve.
The categories you may choose from are active, inactive

Query: So what was the verdict on O=C(Nc1cccc(F)c1)N1CCCC2(CCN(C(=O)c3cc(C(F)(F)F)cc(C(F)(F)F)c3)CC2)C1 in this test?
Reply: active

Query: So what was the verdict on COc1ccc(-c2nc3cnc(N4CCOCC4)nc3n(Cc3cccs3)c2=O)cc1 in this test?
Reply: active

Query: So what was the verdict on N#CCCn1c(=O)c(-c2cccs2)nc2cnc(Nc3ccccc3)nc21 in this test?
Reply: active

Query: So what was the verdict on COc1ccc(CNc2ccnc(-c3cccc(C#N)c3)n2)c(OC)c1 in this test?
Reply: active

Query: So what was the verdict on Cc1noc(C)c1-c1nc(NCCN2CCOCC2)c2ccccc2n1 in this test?
Reply: active

Query: So what was the verdict on COc1ccc(CNc2ccnc(-c3ccccc3Cl)n2)c(OC)c1 in this test?
Reply: active

Query: So what was the verdict on C[C@@H](C(=O)O)c1ccc(C(=O)c2cccs2)cc1 in this test?
Reply: inactive

Query: So what was the verdict on COc1ccccc1CN1CCCC2(CCN(C(=O)c3cnccn3)CC2)C1 in this test?
Reply: inactive

Query: So what was the verdict on COc1ncc2nc(-c3ccc(F)cc3)c(=O)n(Cc3ccc(F)cc3)c2n1 in this test?
Reply: active

Query: So what was the verdict on Nc1nc2n[nH]nc2c(=O)[nH]1 in this test?
Reply: inactive

Query: So what was the verdict on CNc1ncnc2ccc(-c3ccccc3C#N)cc12 in this test?
Reply: active

Query: So what was the verdict on CCNc1ncc2nc(-c3ccccc3)c(=O)n(CCOC)c2n1 in this test?
Reply: active

Query: So what was the verdict on O=c1c(-c2ccc(Cl)cc2)nc2cnc(Nc3ccccc3)nc2n1C[C@H]1CCCO1 in this test?
Reply: active

====

TARGET_OR_SYSTEM: Cytochrome P450 1A2 (Homo sapiens)
PROTOCOL: p450-cyp1a2 (AID 410)
CONDITION_NOTES: recombinant CYP1A2, luciferin-ME demethylation, luminescence; series mostly up to 57 µM
Records with an inconclusive call do not appear. Calls of active or inactive are those of the source. Calls follow the shape of the full dose curve.
The categories you may choose from are label 1 (active), label 0 (inactive)

>>> discrete_label("CN(C)Cc1ccccc1-c1cncnc1NCc1cccnc1")
"label 1"
>>> discrete_label("CCNc1ncc2nc(-c3cccs3)c(=O)n(CCc3ccccc3)c2n1")
"label 1"
>>> discrete_label("CC(C)CN1CCC2(CC1)CCN(C(=O)c1cc(C(F)(F)F)cc(C(F)(F)F)c1)CC2")
"label 0"
>>> discrete_label("COc1ccccc1CNc1nc(-c2ccccc2CN(C)C)nc2ccccc12")
"label 1"
>>> discrete_label("CS(=O)(=O)c1ccc(Cn2c3c(c4cc(F)cc(F)c42)CCC[C@H]3CC(=O)O)cc1")
"label 0"
>>> discrete_label("COc1cccc(-c2cncnc2NCCc2cnc[nH]2)c1")
"label 1"

Query: So what was the verdict on COc1ccc(C(=O)N2CCC3(CC2)CCN(c2ncccn2)CC3)cc1 in this test?
Reply: label 0

Query: So what was the verdict on COc1ccccc1CNc1cc(-c2ccc(C(=O)N(C)C)cc2)ncn1 in this test?
Reply: label 1
